- target_of_assay: PIK3CA (human) (UniProt P42336)
- Sequence (P42336 whole entry, looked up): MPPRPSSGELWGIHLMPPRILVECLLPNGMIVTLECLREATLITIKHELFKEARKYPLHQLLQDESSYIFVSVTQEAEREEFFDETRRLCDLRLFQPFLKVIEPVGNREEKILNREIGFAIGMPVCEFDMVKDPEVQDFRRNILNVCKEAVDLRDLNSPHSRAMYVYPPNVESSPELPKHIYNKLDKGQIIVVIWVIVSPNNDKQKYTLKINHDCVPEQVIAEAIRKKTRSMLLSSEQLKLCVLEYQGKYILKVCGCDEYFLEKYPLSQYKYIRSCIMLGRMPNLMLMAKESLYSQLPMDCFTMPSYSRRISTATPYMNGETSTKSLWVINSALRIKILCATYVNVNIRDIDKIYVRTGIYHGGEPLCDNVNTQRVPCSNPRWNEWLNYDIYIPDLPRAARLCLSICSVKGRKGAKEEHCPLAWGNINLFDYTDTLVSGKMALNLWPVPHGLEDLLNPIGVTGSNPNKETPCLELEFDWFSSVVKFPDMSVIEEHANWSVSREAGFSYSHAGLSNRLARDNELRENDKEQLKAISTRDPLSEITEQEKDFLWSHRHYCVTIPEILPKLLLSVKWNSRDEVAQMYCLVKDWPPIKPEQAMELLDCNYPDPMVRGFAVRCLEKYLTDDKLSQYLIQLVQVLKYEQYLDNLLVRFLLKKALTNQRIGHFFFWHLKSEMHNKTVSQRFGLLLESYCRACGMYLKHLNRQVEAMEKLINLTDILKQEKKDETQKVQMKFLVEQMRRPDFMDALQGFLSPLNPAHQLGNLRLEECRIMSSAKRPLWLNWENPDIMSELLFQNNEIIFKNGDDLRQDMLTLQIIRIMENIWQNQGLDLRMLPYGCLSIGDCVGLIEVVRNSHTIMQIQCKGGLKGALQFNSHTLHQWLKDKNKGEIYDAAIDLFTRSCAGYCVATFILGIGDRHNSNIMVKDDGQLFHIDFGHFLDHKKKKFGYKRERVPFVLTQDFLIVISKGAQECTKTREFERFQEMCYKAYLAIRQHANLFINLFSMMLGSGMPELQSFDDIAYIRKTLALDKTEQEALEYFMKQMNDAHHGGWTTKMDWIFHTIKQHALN
- protocol_text: Enzyme Assay
property_label: IC50 (nM)

Illustrative cases are given below, each with its answer.
CS(=O)(=O)N[C@H]1C[C@@H](c2nc3cccc(Cl)c3c(=O)n2-c2ccccc2)N(c2ncnc3[nH]cnc23)C1; 300
N#Cc1cnc(N)nc1N1C[C@@H](O)C[C@H]1c1nc2cccc(C(F)(F)F)c2c(=O)n1-c1ccccc1; 6600
Cc1nc(N)nc(N2C[C@@H](O)C[C@H]2c2nc3cccc(C(F)(F)F)c3c(=O)n2-c2ccccc2)c1C#N; 780
Nc1nc(N2CCC[C@H]2c2nc3cccc(Cl)c3c(=O)n2N2CCCCC2)c2nc[nH]c2n1; 2300
O=c1c2c(C(F)(F)F)cccc2nc([C@@H]2C[C@H](F)CN2c2ncnc3[nH]cnc23)n1-c1ccccc1; 3600
Nc1nc(N2CCC[C@H]2c2nc3cccc(C(F)(F)F)c3c(=O)n2-c2ccccc2)c2nccn2n1; 2800

P = Cc1nc(N)nc(N2CCC[C@H]2c2nc3cccc(C(F)(F)F)c3c(=O)n2-c2ccccc2)c1C#N
Q = N#Cc1c(N)ncnc1N1CSC[C@H]1c1nc2cccc(Cl)c2c(=O)n1-c1ccccc1
R = CO[C@H]1C[C@@H](c2nc3cccc(Cl)c3c(=O)n2C2CC2)N(c2nc(N)nc(C)c2C#N)C1
S = Cc1nc(N)nc(N2CCC[C@H]2c2nc3cccc(C(F)(F)F)c3c(=O)n2-c2cncc(F)c2)c1C#N
T = N#Cc1c(N)ncnc1N1CCC[C@H]1c1nc2cccc(Cl)c2c(=O)n1-c1cccnc1
[in] Number of compounds to sort: 5. Sort criterion: IC50, ascending. Ranked list of labels, please, in the requested order.
[out] P, R, Q, S, T

---

- target_of_assay: PIK3CG (human)
- protocol_text: Cell-Based Assay
- measurement_setup: u937
pIC50: −log10 of the molar value.
property_label: pIC50

Illustrative cases are given below, each with its answer.
N#Cc1c(N)ncnc1N1CCC[C@H]1c1nc2ccc(F)c(C(F)(F)F)c2c(=O)n1-c1ccccc1; 6.68
N#Cc1cnc(N)nc1N1C[C@@H](O)C[C@H]1c1nc2cccc(C(F)(F)F)c2c(=O)n1-c1ccccc1; 6.95
Cc1nc(N)nc(N2C[C@@H](O)C[C@H]2c2nc3cccc(C(F)(F)F)c3c(=O)n2N2CCOCC2)c1C#N; 7.08
N#Cc1c(N)ncnc1N1C[C@@H](O)C[C@H]1c1nc2ccc(F)c(Cl)c2c(=O)n1-c1ccccc1; 7.59
Nc1nc(N2CCC[C@H]2c2nc3cccc(C(F)(F)F)c3c(=O)n2-c2ccccc2)c2nccn2n1; 6.51

I = Cc1nc(N)nc(N2CCC[C@H]2c2nc3cccc(S(C)(=O)=O)c3c(=O)n2-c2ccccc2)c1C#N
II = CC1(n2c([C@@H]3CCCN3c3ncnc(N)c3C#N)nc3cccc(Cl)c3c2=O)CC1
III = Cc1nc(N)nc(N2C[C@@H](O)C[C@H]2c2nc3cccc(Cl)c3c(=O)n2-c2ccccc2)c1C#N
IV = Cc1nc(N)nc(N2CCC[C@H]2c2nc3cccc(C(F)(F)F)c3c(=O)n2-c2cccc(F)c2)c1C#N
V = CO[C@H]1C[C@@H](c2nc3cccc(C(F)(F)F)c3c(=O)n2N2CCOCC2)N(c2ncnc(N)c2C#N)C1
[in] Descending sort on pIC50 required. Ranked list of labels, please, in the requested order.
[out] III, II, IV, I, V
(III: 8.30, II: 7.43, IV: 6.79, I: 6.46, V: 5.72)

I = Cc1c(F)ccc2nc([C@@H]3C[C@H](O)CN3c3ncnc(N)c3C#N)n(-c3ccccc3)c(=O)c12
II = Nc1nc(N2CCC[C@H]2c2nc3cccc(C(F)(F)F)c3c(=O)n2-c2ccccc2)c2ncsc2n1
III = N#Cc1c(N)ncnc1N1CCC[C@H]1c1nc2cccc(Cl)c2c(=O)n1-c1ccccc1
IV = CS(=O)(=O)c1cccc2nc([C@@H]3CCCN3c3ncnc(N)c3C#N)n(-c3ccccc3)c(=O)c12
V = N#Cc1c(N)ncnc1N1C[C@@H](O)C[C@H]1c1nc2cccc(C(F)(F)F)c2c(=O)n1-c1cccnc1
[in] Number of molecules to sort: 5. Sort criterion: pIC50, ascending. Ranked list of labels, please, in the requested order.
[out] IV, I, V, III, II

I = Cc1nc(N)nc(N2C[C@@H](O)C[C@H]2c2nc3cccc(F)c3c(=O)n2-c2ccccc2)c1C#N
II = N#Cc1c(N)nc(N)nc1N1CCC[C@H]1c1nc2cccc(C(F)(F)F)c2c(=O)n1-c1ccccc1
III = Nc1nc(N2CCC[C@H]2c2nc3cccc(C(F)(F)F)c3c(=O)n2-c2cncc(F)c2)c2nc[nH]c2n1
[in] Number of molecules to sort: 3. Sort criterion: pIC50, ascending. Ranked list of labels, please, in the requested order.
[out] III, I, II

P = Nc1nc(N2CSC[C@H]2c2nc3cccc(Cl)c3c(=O)n2-c2ccccc2)c2nc[nH]c2n1
Q = Nc1nc(N2C[C@@H](F)C[C@H]2c2nc3cccc(C(F)(F)F)c3c(=O)n2-c2ccccc2)c2nc[nH]c2n1
[in] I'm curious whether P or Q has the smaller pIC50 number. Which is it? Please identify the chosen entry by its label.
[out] P
(P: 6.92, Q: 7.35)

---

- target_of_assay: UniProt P42336
- protocol_text: Enzyme Assay
pIC50: −log10 of the molar value.
property_label: pIC50

Illustrative cases are given below, each with its answer.
Nc1nc(N2CCC[C@H]2c2nc3cccc(Cl)c3c(=O)n2N2CCOCC2)c2nc[nH]c2n1; 5.34
O=c1c2c(Cl)cccc2nc([C@@H]2CCCN2c2ncnc3[nH]cnc23)n1-c1cccnc1; 5.48
Cc1nc(N)nc(N2C[C@@H](O)C[C@H]2c2nc3cccc(C(F)(F)F)c3c(=O)n2N2CCOCC2)c1C#N; 5.70
Cc1nc(N)nc(N2C[C@@H](O)C[C@H]2c2nc3cccc(Cl)c3c(=O)n2-c2cccnc2)c1C#N; 6.00
CC1(n2c([C@@H]3CCCN3c3ncnc4[nH]cnc34)nc3cccc(Cl)c3c2=O)CC1; 6.24
N#Cc1c(N)ncnc1N1CCC[C@H]1c1nc2cccc(Cl)c2c(=O)n1C1CCOCC1; 5.33
N#Cc1c(N)ncnc1N1CCC[C@H]1c1nc2ccc(F)c(F)c2c(=O)n1-c1ccccc1; 5.26

I = Cc1nc(N)nc(N2CCC[C@H]2c2nc3cccc(OC(F)F)c3c(=O)n2-c2ccccc2)c1C#N
II = Nc1nc(N2CSC[C@H]2c2nc3cccc(Cl)c3c(=O)n2-c2ccccc2)c2nc[nH]c2n1
III = CS(=O)(=O)c1cccc2nc([C@@H]3CCCN3c3ncnc(N)c3C#N)n(-c3ccccc3)c(=O)c12
[in] Descending sort on pIC50 required. Ranked list of labels, please, in the requested order.
[out] I, II, III
(I: 6.47, II: 5.64, III: 5.29)

---

- target_of_assay: PIK3CD (Human) (UniProt O00329)
- Sequence (O00329 whole entry, looked up): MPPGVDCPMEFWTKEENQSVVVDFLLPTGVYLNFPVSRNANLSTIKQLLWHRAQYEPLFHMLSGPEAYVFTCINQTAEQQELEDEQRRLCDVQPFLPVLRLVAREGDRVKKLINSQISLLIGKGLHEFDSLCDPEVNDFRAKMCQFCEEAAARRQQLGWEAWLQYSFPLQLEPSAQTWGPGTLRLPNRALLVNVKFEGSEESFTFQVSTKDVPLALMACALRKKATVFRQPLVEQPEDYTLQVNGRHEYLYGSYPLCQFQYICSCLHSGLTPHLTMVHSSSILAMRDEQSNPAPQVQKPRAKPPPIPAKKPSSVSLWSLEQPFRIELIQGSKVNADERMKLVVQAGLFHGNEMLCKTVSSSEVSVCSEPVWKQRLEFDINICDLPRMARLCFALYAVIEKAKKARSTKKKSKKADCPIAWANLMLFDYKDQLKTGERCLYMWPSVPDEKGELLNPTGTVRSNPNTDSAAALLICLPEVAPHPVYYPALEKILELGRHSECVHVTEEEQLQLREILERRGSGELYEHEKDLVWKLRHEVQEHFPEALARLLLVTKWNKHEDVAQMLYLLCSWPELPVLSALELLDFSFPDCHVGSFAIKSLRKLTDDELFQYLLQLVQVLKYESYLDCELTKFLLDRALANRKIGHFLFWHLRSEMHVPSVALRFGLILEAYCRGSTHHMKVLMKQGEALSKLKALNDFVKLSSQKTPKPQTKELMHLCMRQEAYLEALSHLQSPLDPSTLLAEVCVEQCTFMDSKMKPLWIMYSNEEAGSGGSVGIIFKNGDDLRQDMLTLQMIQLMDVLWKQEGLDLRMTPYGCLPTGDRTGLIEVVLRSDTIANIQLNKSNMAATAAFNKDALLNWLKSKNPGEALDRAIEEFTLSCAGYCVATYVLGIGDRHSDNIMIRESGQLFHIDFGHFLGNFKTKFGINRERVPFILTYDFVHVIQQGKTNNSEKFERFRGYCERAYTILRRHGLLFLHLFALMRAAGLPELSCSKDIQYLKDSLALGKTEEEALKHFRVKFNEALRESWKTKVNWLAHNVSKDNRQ
- protocol_text: Enzyme Assay
pIC50: −log10 of the molar value.
property_label: pIC50

N#Cc1c(N)ncnc1N1C[C@@H](O)C[C@H]1c1nc2cccc(Cl)c2c(=O)n1-c1ccccc1; 8.40

1 = Cn1cnc2c(N3CCC[C@H]3c3nc4cccc(Cl)c4c(=O)n3N3CCOCC3)nc(N)nc21
2 = N#Cc1c(N)ncnc1N1CCC[C@H]1c1nc2cccc(O)c2c(=O)n1-c1ccccc1
3 = Cc1nc(N)nc(N2CCC[C@H]2c2nc3cccc(S(C)(=O)=O)c3c(=O)n2-c2ccccc2)c1C#N
[in] Number of molecules to sort: 3. Sort criterion: pIC50, ascending. Ranked list of labels, please, in the requested order.
[out] 1, 3, 2
(1: 5.60, 3: 7.89, 2: 8.52)

---

- target_of_assay: PIK3CD (Human)
- protocol_text: Cell-Based Assay
- measurement_setup: rat-1
pIC50: −log10 of the molar value.
property_label: pIC50

Illustrative cases are given below, each with its answer.
Nc1nc(N2CCC[C@H]2c2nc3cccc(Cl)c3c(=O)n2C2CCCCC2)c2nc[nH]c2n1; 6.83
Cn1cnc2c(N3CCC[C@H]3c3nc4cccc(Cl)c4c(=O)n3C3CC3)nc(N)nc21; 6.05
Cn1cnc2c(N3CCC[C@H]3c3nc4cccc(Cl)c4c(=O)n3-c3ccccc3)nc(N)nc21; 6.96
Cc1nc(N)nc(N2C[C@@H](F)C[C@H]2c2nc3cccc(C(F)(F)F)c3c(=O)n2-c2cccc(F)c2)c1C#N; 7.85
Cc1nc(N)nc(N2CCC[C@H]2c2nc3cccc(S(C)(=O)=O)c3c(=O)n2-c2ccccc2)c1C#N; 7.38
Nc1nc(N2CCC[C@H]2c2nc3cccc(Cl)c3c(=O)n2-c2cccnc2)c2nc[nH]c2n1; 7.11
Nc1nc(N2C[C@@H](F)C[C@H]2c2nc3cccc(C(F)(F)F)c3c(=O)n2-c2cccnc2)c2nc[nH]c2n1; 6.62
Cc1nc(N)nc(N2C[C@@H](O)C[C@H]2c2nc3cccc(C(F)(F)F)c3c(=O)n2-c2cccnc2)c1C#N; 7.17

A = N#Cc1c(N)ncnc1N1CCC[C@H]1c1nc2cccc(C(F)(F)F)c2c(=O)n1-c1cccnc1
B = CO[C@H]1C[C@@H](c2nc3cccc(Cl)c3c(=O)n2N2CCOCC2)N(c2ncnc(N)c2C#N)C1
[in] I'm curious whether A or B has the smaller pIC50 number. Which is it? Please identify the chosen entry by its label.
[out] A
(A: 7.01, B: 7.49)

a = Nc1nc(N2C[C@@H](O)C[C@H]2c2nc3cccc(C(F)(F)F)c3c(=O)n2-c2ccccc2)c2ncsc2n1
b = Cc1c(F)ccc2nc([C@@H]3CCCN3c3ncnc(N)c3C#N)n(-c3ccccc3)c(=O)c12
c = Cc1nc(N)nc(N2CCC[C@H]2c2nc3cccc(Cl)c3c(=O)n2N2CCOCC2)c1C#N
d = CC1(n2c([C@@H]3CCCN3c3ncnc4[nH]cnc34)nc3cccc(Cl)c3c2=O)CC1
e = N#Cc1cnc(N)nc1N1C[C@@H](O)C[C@H]1c1nc2cccc(C(F)(F)F)c2c(=O)n1-c1ccccc1
[in] Descending sort on pIC50 required. Ranked list of labels, please, in the requested order.
[out] d, c, b, a, e
(d: 8.15, c: 7.82, b: 7.60, a: 7.05, e: 6.85)

P = N#Cc1c(N)ncnc1N1C[C@@H](O)C[C@H]1c1nc2ccc(F)c(Cl)c2c(=O)n1-c1ccccc1
Q = CO[C@H]1C[C@@H](c2nc3cccc(Cl)c3c(=O)n2C2CC2)N(c2nc(N)nc(C)c2C#N)C1
[in] Between P and Q , whose measured pIC50 reads higher? Please identify the chosen entry by its label.
[out] P
